system: T. vaginalis; experiment: Medium-throughput (MTS) confirmatory dose-response growth assay, T. vaginalis; type: cell-based, Trichomonas vaginalis; details: 96-well, 10,000 cells/mL in 50 μL, 48 h, mean ± SEM; >10 = no appreciable activity at highest dose
OBSERVATION_TYPE: IC50 (µM)
Use µM as the unit, but write only the number.

INPUT: Look up and report measured IC50 for this entry: COC(=O)c1ccc(CCCCCCCCCCc2ccc(C(=O)OC)nc2)cn1 [Penicolinate A, penicolinate A]
OUTPUT: 2.7

INPUT: Return the recorded IC50 value; entry: Cn1ncnc2c(=O)n(C)c(=O)nc1-2 [Toxoflavin, toxoflavin, reference compound]
OUTPUT: 3.1

INPUT: Please supply the value of reported IC50 for the item CC(/C=C/C(=O)NO)=C\[C@@H](C)C(=O)c1ccc(N(C)C)cc1 [Trichostatin A, trichostatin A, reference compound]
OUTPUT: 0.22

INPUT: Please give the documented IC50 of CCC(C)CC1CCC(O)(C(C)(O)C(=O)NC2C(=O)N3NCCCC3C(=O)N(O)C(C)C(=O)NCC(=O)N3NCCCC3C(=O)N(O)C(C)C(=O)OC2C(C)C)OC1C (stereo not shown)
OUTPUT: 0.059
